- Read-out: Cytochrome P450 (CYP1A1), CYP1A1 (gene 1543)
- experiment-summary: LTEA_HepaRG_CYP1A1: Life Technologies and Expression Analysis (LTEA) Assay for Cytochrome P450 (CYP1A1) using HepaRG (AID 2283454)
- condition: mRNA level, 48 h; actives raise or lower the signal
The source made the active and inactive calls. How the source made its calls: active means hit-call score of the fitted dose curve at least 0.9, where 1 is the maximum; inactive means score below 0.9.
Outcomes: Y for active, N for inactive

- molecule: "CO[C@H]1/C=C/O[C@@]2(C)Oc3c(C)c(O)c4c(O)c(c(/C=N/N5CCN(C)CC5)c(O)c4c3C2=O)NC(=O)/C(C)=C\\C=C\\[C@H](C)[C@H](O)[C@@H](C)[C@@H](O)[C@@H](C)[C@H](OC(C)=O)[C@@H]1C"
  label-class: "Y"
- molecule: "CCCOC(=O)c1cc(O)c(O)c(O)c1"
  label-class: "Y"
- molecule: "Cc1cn([C@H]2C[C@H](N=[N+]=[N-])[C@@H](CO)O2)c(=O)[nH]c1=O"
  label-class: "N"
- molecule: "O=C=NCCCCCCN=C=O"
  label-class: "Y"
- molecule: "Oc1ccccc1"
  label-class: "N"
- molecule: "CC(C)(C)c1csc(-c2cc3cc(OCc4ccccc4CC(=O)O)ccc3o2)n1"
  label-class: "Y"
- molecule: "O=C1CCC(C2CCCCC2)CC1"
  label-class: "Y"
- molecule: "Clc1ccccc1C(c1ccccc1)(c1ccccc1)n1ccnc1"
  label-class: "Y"
- molecule: "CCN(Cc1cccc(S(=O)(=O)O)c1)c1ccc(C(=C2C=CC(=[N+](CC)Cc3cccc(S(=O)(=O)O)c3)C=C2)c2ccccc2S(=O)(=O)[O-])cc1"
  label-class: "Y"
- molecule: "CCCCCCCCN(C)CCCCCCCC"
  label-class: "N"
- molecule: "OC12N=C(c3ccccc3)SC1Cc1cc(Cl)ccc12 (configuration not stated)"
  label-class: "Y"
- molecule: "O=C(O)c1ccccc1C(=O)OCc1ccccc1"
  label-class: "Y"
- molecule: "CN1C(=O)N(c2ccccc2Br)Cc2cnc(Nc3ccc4c(c3)OCC(CO)O4)nc21 (configuration not stated)"
  label-class: "Y"
- molecule: "COc1cccc([C@H](O)C2CCN(CCc3ccc(F)cc3)CC2)c1OC"
  label-class: "Y"
- molecule: "c1ccc(C[n+]2cccc3ccccc32)cc1"
  label-class: "Y"
- molecule: "CN(C)C(=O)C1(N2CCCCC2)CCN(CC[C@@]2(c3ccc(Cl)c(Cl)c3)CN(C(=O)c3ccccc3)CCO2)CC1"
  label-class: "Y"
- molecule: "CC1=CC(=O)/C(=C(/C)O)C(=O)O1"
  label-class: "N"
- molecule: "CC1(C)NC(=O)N(c2ccc([N+](=O)[O-])c(C(F)(F)F)c2)C1=O"
  label-class: "N"
- molecule: "CCCCCCCCOC(=O)c1cc(O)c(O)c(O)c1"
  label-class: "Y"
- molecule: "CC(C)(C)c1cc(/C=C2\\SC(N)=NC2=O)cc(C(C)(C)C)c1O"
  label-class: "N"
- molecule: "O=C(Nc1ccc(Cl)cc1)Nc1ccc(Cl)c(Cl)c1"
  label-class: "Y"
- molecule: "COCC(C)OCC(C)OCC(C)O (configuration not stated)"
  label-class: "N"

---

- experiment-summary: APR_HepG2_CellCycleArrest_72hr: Apredica 72-hour HepG2 Assay for Cell Cycle Arrest (AID 2282914)
- condition: high-content imaging, actives raise or lower the signal
Activity calls are given as the source filed them. The calls were made as follows: active = hit-call score of the fitted dose curve at least 0.9, where 1 is the maximum; inactive = score below 0.9.

- molecule: "Cc1ccc2oc(CN(Cc3ccccc3)C(=O)Nc3c(F)cc(F)cc3F)c(-c3ccc(Cl)cc3)c2c1"
  AC50: "inactive"
- molecule: "Cc1cccc2ccccc12"
  AC50: "inactive"
- molecule: "CCCCOC(=O)c1ccc(O)cc1"
  AC50: "inactive"
- molecule: "Cc1c2ccccc2c(C)c2c1ccc1ccccc12"
  AC50: "6.16 µM (active)"
- molecule: "Cc1cc2c(cc1C(F)(F)F)N(C(=O)Nc1ccc(Oc3cccnc3C)nc1)CC2"
  AC50: "inactive"
- molecule: "CN(C[C@@H](CC[N+]12CCC(C3CCCCC3)(CC1)CC2)c1ccc(Cl)c(Cl)c1)C(=O)c1cc(C(F)(F)F)cc(C(F)(F)F)c1"
  AC50: "inactive"
- molecule: "CN1C(=O)CC[C@H]1c1cccnc1"
  AC50: "inactive"
- molecule: "OC12N=C(c3ccccc3)SC1Cc1cc(Cl)ccc12 (centres undefined)"
  AC50: "inactive"
- molecule: "NCc1cccc(C2CCN(C(=O)c3ccc(C#Cc4ccccc4F)o3)CC2)c1"
  AC50: "inactive"
- molecule: "COCC(C)OCC(C)OCC(C)O (centres undefined)"
  AC50: "inactive"
- molecule: "O=C(O)c1ccccc1C(=O)OCc1ccccc1"
  AC50: "inactive"
- molecule: "Cc1oc2c(NC(=O)c3c(Cl)cccc3Cl)cccc2c1C(C)(C)O"
  AC50: "inactive"
- molecule: "CCCOC(=O)c1cc(O)c(O)c(O)c1"
  AC50: "46.2 µM (active)"
- molecule: "CCCCCCCC[Si](OCC)(OCC)OCC"
  AC50: "0.03 µM (active)"
- molecule: "C[C@]12CC[C@@H]3c4ccc(O)cc4CC[C@H]3[C@@H]1CC[C@H]2O"
  AC50: "173 µM (active)"
- molecule: "CC(C)(C)c1cc(/C=C2\\SC(N)=NC2=O)cc(C(C)(C)C)c1O"
  AC50: "inactive"
- molecule: "c1ccc2n[nH]nc2c1"
  AC50: "inactive"
- molecule: "O=C1O[C@H]([C@@H](O)CO)C(O)=C1O"
  AC50: "inactive"
- molecule: "CC1(C)NC(=O)N(c2ccc([N+](=O)[O-])c(C(F)(F)F)c2)C1=O"
  AC50: "inactive"
- molecule: "O=C(OCCCCCCOC(=O)c1ccccc1)c1ccccc1"
  AC50: "inactive"
- molecule: "Clc1cc(Cl)c2c(c1)N=C1CCCCCN1C2"
  AC50: "inactive"
- molecule: "Cc1cn([C@H]2C[C@H](N=[N+]=[N-])[C@@H](CO)O2)c(=O)[nH]c1=O"
  AC50: "46.3 µM (active)"
- molecule: "COc1ccc2cc(S(=O)(=O)N[C@H](CC(=O)N[C@H](Cc3ccc(CN4[C@H](C)CCC[C@@H]4C)cc3)C(=O)N(C)C(C)C)c3ccc4c(c3)OCO4)ccc2c1"
  AC50: "inactive"
- molecule: "CC(O)CC(C)(C)O (centres undefined)"
  AC50: "inactive"
